Tested on: biotinyl-Ile-oxazolone
Experiment: self-aminoacylation, catalytic enhancement (BIO) (fold over background); higher = more active; k-Seq, kA / k0A0; sequences stand for … in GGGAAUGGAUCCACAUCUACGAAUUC…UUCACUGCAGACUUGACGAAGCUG
This sample holds only a part of the variants without activity.
Class true (1): self-aminoacylation at least 3. Class false (0): self-aminoacylation below 3.

UCGCACUUCAAGCAAUCGGUC [Fam1B.1 aminoacylation ribozyme variant]    false (0)
AAGUUUGCUACUUGUCGCAAG [Fam3.1 aminoacylation ribozyme variant]    false (0)
GUUCCCCUAGGUCAUCGGGUG [Fam2.2 aminoacylation ribozyme variant]    true (1)
AUACUUCAAACAAUCAGUCUG [Fam1A.1 aminoacylation ribozyme variant]    false (0)
AUUACCCUGGUAAUCGAGUCA [Fam2.1 aminoacylation ribozyme variant]    false (0)
AUUCACCAAGGUGAUCGGGUG [Fam2.2 aminoacylation ribozyme variant]    false (0)
AAGUUUGCUUAGAGUCGCAAG [Fam3.1 aminoacylation ribozyme variant]    false (0)
CCACACUUCAAGUUAUCGGUC [Fam1B.1 aminoacylation ribozyme variant]    false (0)
ACUACCCUGGUCAUCGGGUGA [Fam2.1 aminoacylation ribozyme variant]    true (1)
AUUCACCUAGCUCACCGGGUG [Fam2.2 aminoacylation ribozyme variant]    false (0)
AUCGCCCUGGUCAUCGAGUGA [Fam2.1 aminoacylation ribozyme variant]    true (1)
ACUCACCUAGGUCAUCGGGUA [Fam2.2 aminoacylation ribozyme variant]    true (1)
AUUCACGUAGGUCAUCGGGCG [Fam2.2 aminoacylation ribozyme variant]    false (0)
ACUCACCCAGGUCAUCGGGUG [Fam2.2 aminoacylation ribozyme variant]    true (1)
AAAUUUCCUAAUAGUCGCAAG [Fam3.1 aminoacylation ribozyme variant]    false (0)
AUUUACCUUGGUCAUCGGGUG [Fam2.2 aminoacylation ribozyme variant]    true (1)
CUACUUCAAACAACCGUUCUG [Fam1A.1 aminoacylation ribozyme variant]    false (0)
CUACUCCAAACAAUUGGUCUG [Fam1A.1 aminoacylation ribozyme variant]    false (0)
AAGUCUGCUAAUAGUGGCAAG [Fam3.1 aminoacylation ribozyme variant]    false (0)
AUUACCCUGGUCAACGAGUUA [Fam2.1 aminoacylation ribozyme variant]    false (0)
AUUACCCUUGUCAUCGAGUGU [Fam2.1 aminoacylation ribozyme variant]    false (0)
GGUACCCUGGUCAUCGAGUGA [Fam2.1 aminoacylation ribozyme variant]    true (1)
AUUAUCCUGGUCAUCGAGUGC [Fam2.1 aminoacylation ribozyme variant]    false (0)
AUUACCCUGAGCAUCGAGUGA [Fam2.1 aminoacylation ribozyme variant]    false (0)
CUACUUCAAAGAAUAGGUCUG [Fam1A.1 aminoacylation ribozyme variant]    false (0)
AAGUUUGCUAAUAGGCGCAGG [Fam3.1 aminoacylation ribozyme variant]    false (0)
AUUCAGCUAGGUCAUCGGGAG [Fam2.2 aminoacylation ribozyme variant]    false (0)
AUAGACCUAGGUCAUCGGGUG [Fam2.2 aminoacylation ribozyme variant]    false (0)
AUUACCCUGGUCCUCGAGUGU [Fam2.1 aminoacylation ribozyme variant]    false (0)
AGUACCCUGGUCACCGAGUGA [Fam2.1 aminoacylation ribozyme variant]    true (1)
AAGUUUGCUAAUACCCGCAAG [Fam3.1 aminoacylation ribozyme variant]    false (0)
CUCCUUCAAAUAAUCGGUCUG [Fam1A.1 aminoacylation ribozyme variant]    false (0)
CUCCUGCAAACAAUCGGUCUG [Fam1A.1 aminoacylation ribozyme variant]    false (0)
AUUCCCCUGGUCUUCGAGUGA [Fam2.1 aminoacylation ribozyme variant]    true (1)

* * *

System: biotinyl-Leu-oxazolone
Assay: self-aminoacylation, catalytic enhancement (BLO) (fold over background); higher = more active; k-Seq, kA / k0A0; sequences stand for … in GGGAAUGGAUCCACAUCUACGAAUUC…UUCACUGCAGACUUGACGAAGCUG
Fewer inactive variants are shown than the library holds.
self-aminoacylation values, listed per item
VALUE_TYPE: self-aminoacylation

AAGUUUGCUAAUACCCGCAAG [Fam3.1 aminoacylation ribozyme variant]    0.783
AAGUUUGCGAAUAGUCGCAUG [Fam3.1 aminoacylation ribozyme variant]    1.23
AUAACCCUGGUCAGCGAGUGA [Fam2.1 aminoacylation ribozyme variant]    5.25
AUUACCCUGGUCAUGGAGUGC [Fam2.1 aminoacylation ribozyme variant]    1.24
AUUAUCCUGGUCAUCGAGCGA [Fam2.1 aminoacylation ribozyme variant]    1.83
AUUACCGUGGUCAUCGAGUGC [Fam2.1 aminoacylation ribozyme variant]    1.08
AUUCACCUAAGUCAUCGGGUU [Fam2.2 aminoacylation ribozyme variant]    2.55
GUACUUCAAACAAUCGAUCUG [Fam1A.1 aminoacylation ribozyme variant]    0.862
UCACACUUCAAGCAAUCGCUC [Fam1B.1 aminoacylation ribozyme variant]    1.3
CUUCUUCAAACAAUCUGUCUG [Fam1A.1 aminoacylation ribozyme variant]    0.748
CAACACUUCAAGCAAUCGGUG [Fam1B.1 aminoacylation ribozyme variant]    4.86
AUUCACCUAGGUCCUCGGGUU [Fam2.2 aminoacylation ribozyme variant]    2.45
AUUACCCUGGUCAUAGAGAGA [Fam2.1 aminoacylation ribozyme variant]    0.798
AAAUUUGCUAAUACUCGCAAG [Fam3.1 aminoacylation ribozyme variant]    1.25
AUUGACCUAAGUCAUCGGGUG [Fam2.2 aminoacylation ribozyme variant]    12.1
ACUACCCUGGUCAUCGAGGGA [Fam2.1 aminoacylation ribozyme variant]    3.13
AUUAUCCUGGUGAUCGAGUGA [Fam2.1 aminoacylation ribozyme variant]    7.98
CCACACUUUCAGCAAUCGGUC [Fam1B.1 aminoacylation ribozyme variant]    0.966
AAGUUAGCUAUUAGUCGCAAG [Fam3.1 aminoacylation ribozyme variant]    1.82
AUUACCCUGGUCAUAGACUGA [Fam2.1 aminoacylation ribozyme variant]    0.739
UUUCACCUAGUUCAUCGGGUG [Fam2.2 aminoacylation ribozyme variant]    2.99
AUUCACCUGGGUCAUAGGGUG [Fam2.2 aminoacylation ribozyme variant]    2.23
AAGUCUGCUAAUAGUCGGAAG [Fam3.1 aminoacylation ribozyme variant]    1.87
AUUACCCGGGUCAGCGAGUGA [Fam2.1 aminoacylation ribozyme variant]    7.97
AUUACCCUGGUCAACGAGUUA [Fam2.1 aminoacylation ribozyme variant]    0.662
CCGCACUUCAAUCAAUCGGUC [Fam1B.1 aminoacylation ribozyme variant]    2.03
ACUACUCUGGUCAUCGAGUGA [Fam2.1 aminoacylation ribozyme variant]    8.12
AAGCUUGCUAUUAGUCGCAAG [Fam3.1 aminoacylation ribozyme variant]    2.48
AUUACCCUGGUAAUCGAGUCA [Fam2.1 aminoacylation ribozyme variant]    0.783
UAUACCCUGGUCAUCGAGUGA [Fam2.1 aminoacylation ribozyme variant]    15.5
AUUACUCUGGUCAUCGAGUGA [Fam2.1 aminoacylation ribozyme variant]    6.98
AUUCACCUAGGUAAUCAGGUG [Fam2.2 aminoacylation ribozyme variant]    1.31
AUUCACCGAGGGCAUCGGGUG [Fam2.2 aminoacylation ribozyme variant]    8.06
CUACUUCAAACAAACGAUCUG [Fam1A.1 aminoacylation ribozyme variant]    0.569
CCACACUUCAAACAAUCGGUA [Fam1B.1 aminoacylation ribozyme variant]    0.734

* * *

Tested on: biotinyl-Ile-oxazolone
Test: self-aminoacylation, catalytic enhancement (BIO) (fold over background); higher = more active; k-Seq, kA / k0A0; sequences stand for … in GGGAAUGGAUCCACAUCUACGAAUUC…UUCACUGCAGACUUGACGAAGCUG
Variants at the floor of the assay were thinned out.
self-aminoacylation values, listed per item
VALUE_TYPE: self-aminoacylation

CUAUUUCAAAUAAUCGGUCUG [Fam1A.1 aminoacylation ribozyme variant]    0.912
AUUCACCUAGGUCAUAGGGUA [Fam2.2 aminoacylation ribozyme variant]    1.21
AUUCACCAGGGUCAUCGGGUG [Fam2.2 aminoacylation ribozyme variant]    4.8
AUUCACACAGGUCAUCGGGUG [Fam2.2 aminoacylation ribozyme variant]    4.03
AUUUCCCUGGUAAUCGAGUGA [Fam2.1 aminoacylation ribozyme variant]    3.84

* * *

Tested on: biotinyl-Phe-oxazolone
Experiment: self-aminoacylation, catalytic enhancement (BFO) (fold over background); higher = more active; k-Seq, kA / k0A0; sequences stand for … in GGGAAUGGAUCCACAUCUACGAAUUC…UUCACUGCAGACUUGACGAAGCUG
Variants at the floor of the assay were thinned out.
Class True: self-aminoacylation at least 8. Class False: self-aminoacylation below 8.

CUACUUCGAACGAUCGGUCUG [Fam1A.1 aminoacylation ribozyme variant]    False
AAGUUUGCUAAUAGUCAUAAG [Fam3.1 aminoacylation ribozyme variant]    True
AAGCUUGCUAAUAGUCGCAAC [Fam3.1 aminoacylation ribozyme variant]    False
AUUACCCUGGUCCUCGAGCGA [Fam2.1 aminoacylation ribozyme variant]    False
CGACUUCAAACAAGCGGUCUG [Fam1A.1 aminoacylation ribozyme variant]    False
AUUCACCCUGGUCAUCGGGUG [Fam2.2 aminoacylation ribozyme variant]    True
CCGCAGUUCAAGCAAUCGGUC [Fam1B.1 aminoacylation ribozyme variant]    False
